- assayed-system: human CB2 receptors (Homo sapiens, UniProt P34972)
- Construct: expressed in transfected cells; host or cells: HEK293
- Sequence (P34972 whole entry): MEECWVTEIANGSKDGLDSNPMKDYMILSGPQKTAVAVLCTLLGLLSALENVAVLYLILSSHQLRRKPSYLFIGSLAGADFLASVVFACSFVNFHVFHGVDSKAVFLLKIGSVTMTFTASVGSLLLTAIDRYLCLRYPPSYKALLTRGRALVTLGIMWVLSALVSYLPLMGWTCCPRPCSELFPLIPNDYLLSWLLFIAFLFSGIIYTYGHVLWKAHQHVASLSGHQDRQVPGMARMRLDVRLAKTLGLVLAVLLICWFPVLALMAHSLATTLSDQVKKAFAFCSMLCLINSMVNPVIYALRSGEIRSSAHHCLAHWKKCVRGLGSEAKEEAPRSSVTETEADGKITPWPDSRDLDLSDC
- test-summary: human CB2 radioligand binding assay ([3H]CP-55,940 competition)
observable: Ki (nM)

[[record]]
compound = "CCCCc1cn(C(C)(C)C)s/c1=N\\C(=O)[C@]1(C)CC[C@H](NC(=O)N2CCCC2)C1(C)C"
observable = "Ki"
numeric_readout = 42

[[record]]
compound = "COc1ccc(Cl)cc1C(=O)/N=c1\\sn(C(C)(C)C)cc1CCC#N"
observable = "Ki"
numeric_readout = 44

[[record]]
compound = "COc1ccc(Cl)cc1C(=O)/N=c1\\sn(C(C)(C)C)cc1CC1CCCO1 (centres unmarked)"
observable = "Ki"
numeric_readout = 32

[[record]]
compound = "CC(C)(C)n1cc(CCCC#N)/c(=N/C(=O)c2cc(Cl)ccc2OCC(N)=O)s1"
observable = "Ki"
numeric_readout = 56

[[record]]
compound = "CCCCc1cn(C(C)(C)C)s/c1=N\\C(=O)[C@@H]1CC[C@](C)(C(=O)NCCO)C1(C)C"
observable = "Ki"
numeric_readout = 180

[[record]]
compound = "CCCCc1cn(C(C)(C)C)s/c1=N\\C(=O)[C@@]1(C)CC[C@@H](NC(N)=O)C1(C)C"
observable = "Ki"
numeric_readout = 160

[[record]]
compound = "COc1ccc(Cl)cc1C(=O)/N=c1\\sn(C(C)(C)C)cc1CCCC(C)(C)F"
observable = "Ki"
numeric_readout = 12

[[record]]
compound = "CCCCc1cn(C(C)(C)C)s/c1=N\\C(=O)c1cc(C(F)F)ccc1OC"
observable = "Ki"
numeric_readout = 9.3


---

The following molecules are shown together with reported pEC50 values.
- assayed-system: rat CB2 (Rattus norvegicus)
- Sequence (Q9QZN9 whole entry): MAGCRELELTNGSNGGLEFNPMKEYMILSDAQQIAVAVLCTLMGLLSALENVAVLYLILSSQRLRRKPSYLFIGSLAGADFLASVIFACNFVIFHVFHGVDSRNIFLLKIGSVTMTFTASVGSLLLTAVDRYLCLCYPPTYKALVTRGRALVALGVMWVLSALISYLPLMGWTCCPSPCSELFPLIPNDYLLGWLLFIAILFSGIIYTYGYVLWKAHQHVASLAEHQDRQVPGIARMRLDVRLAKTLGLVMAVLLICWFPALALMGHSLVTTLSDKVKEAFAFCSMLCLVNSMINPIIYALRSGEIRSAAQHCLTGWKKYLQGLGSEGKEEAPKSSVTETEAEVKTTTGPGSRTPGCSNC
- test-summary: rat CB2 cyclase functional assay (HitHunter cAMP, HEK cells)
- condition-context: forskolin 18 μM
pEC50: −log10 of the molar value.
observable: pEC50

[[record]]
smiles = "CCCCc1cn(C(C)(C)C)s/c1=N\\C(=O)[C@@H]1CC[C@](C)(C(=O)NCC)C1(C)C"
numeric_readout = 9.72

[[record]]
smiles = "COc1ccc(Cl)cc1C(=O)/N=c1\\sn(C(C)(C)C)cc1CCCC(C)(C)F"
numeric_readout = 10.14

[[record]]
smiles = "COc1ccc(Cl)cc1C(=O)/N=c1\\sn(C(C)(C)C)cc1CC(C)C"
numeric_readout = 8.89

[[record]]
smiles = "CC(C)(C)n1cc(CCCC#N)/c(=N/C(=O)c2cc(Cl)ccc2OCC(F)(F)F)s1"
numeric_readout = 8.85

[[record]]
smiles = "COc1ccc(Cl)cc1C(=O)/N=c1\\sn(C(C)(C)C)cc1Cc1ccco1"
numeric_readout = 9.89

[[record]]
smiles = "CC/C=C\\c1cn(C(C)(C)C)s/c1=N\\C(=O)c1cc(Cl)ccc1OC"
numeric_readout = 8.77

[[record]]
smiles = "CCCCc1cn(C(C)(C)CF)s/c1=N\\C(=O)c1cc(Cl)ccc1OC"
numeric_readout = 10.19

[[record]]
smiles = "CCCCc1cn(C(C)(C)C)s/c1=N\\C(=O)C12CC3CC(CC(C3)C1)C2"
numeric_readout = 9.89

[[record]]
smiles = "COc1ccc(Cl)cc1C(=O)/N=c1\\sn(C(C)(C)C)cc1C1CCOCC1"
numeric_readout = 8.80

[[record]]
smiles = "COc1ccc(Cl)cc1C(=O)/N=c1\\sn(C(C)(C)C)cc1CCC#N"
numeric_readout = 9.24

[[record]]
smiles = "COc1ccc(Cl)cc1C(=O)/N=c1\\sn(C(C)(C)C)cc1CCCC(F)(F)F"
numeric_readout = 10.21

[[record]]
smiles = "COc1ccc(Cl)cc1C(=O)/N=c1\\sn(C(C)(C)C)cc1COCC(F)F"
numeric_readout = 10.00

